target: IRAK4 (Homo sapiens (Human), UniProt Q9NWZ3); test: IRAK4 MSD degradation in OCI-LY10; assay type: cell-based; settings: OCI-LY10, 4 hrs, MSD; read-out: IRAK4 MSD degradation in OCI-LY10 at 4 hrs: Average external-Abs DC50
Sequence (Q9NWZ3 whole entry): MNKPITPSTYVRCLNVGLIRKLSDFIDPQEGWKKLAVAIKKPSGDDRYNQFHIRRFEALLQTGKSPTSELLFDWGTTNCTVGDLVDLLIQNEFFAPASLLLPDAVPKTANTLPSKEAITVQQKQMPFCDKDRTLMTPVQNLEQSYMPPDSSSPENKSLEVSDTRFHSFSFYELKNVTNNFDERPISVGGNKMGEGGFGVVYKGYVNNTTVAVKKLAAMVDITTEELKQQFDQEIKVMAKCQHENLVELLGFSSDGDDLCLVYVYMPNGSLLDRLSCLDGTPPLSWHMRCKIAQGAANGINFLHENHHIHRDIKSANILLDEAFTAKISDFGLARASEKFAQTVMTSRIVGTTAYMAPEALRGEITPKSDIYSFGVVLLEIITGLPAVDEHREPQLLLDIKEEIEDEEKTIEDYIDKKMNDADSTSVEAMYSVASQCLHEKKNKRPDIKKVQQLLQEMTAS
Overview of recorded DC50 for various molecules

Example entries begin here.
molecule: O=C1CCC(N2C(=O)c3cccc(NCCCOC[C@@H]4CN(C[C@H]5CC[C@H](n6cc(NC(=O)c7coc(-c8ccnc(NCC9CC9)c8)n7)c(C(F)F)n6)CC5)CCO4)c3C2=O)C(=O)N1 (some centres unmarked)
DC50: 10 to 100 nM

molecule: C[C@H]1CN(c2ccn3ncc(C(=O)Nc4cn([C@H]5CC[C@H](CN6CCC(OCCCc7cccc8c7n(C)c(=O)n8C7CCC(=O)NC7=O)CC6)CC5)nc4C(F)F)c3n2)C[C@H](C)O1 (some centres unmarked)
DC50: 10 to 100 nM

molecule: COc1cc(C(=O)NCCCCCCN(C)C(=O)[C@H]2CC[C@H](n3cc(NC(=O)c4coc(-c5ccnc(NCC6CC6)c5)n4)c(C(F)F)n3)CC2)ccc1NC(=O)[C@@H]1N[C@@H](CC(C)(C)C)[C@](C#N)(c2ccc(Cl)cc2F)[C@H]1c1cccc(Cl)c1F
DC50: > 1000 nM

molecule: O=C1CCC(N2C(=O)c3cccc(NCCCOCCCS(=O)(=O)NC(=O)[C@H]4CC[C@H](n5cc(NC(=O)c6cnn7ccc(N8C[C@H]9CC8CO9)nc67)c(C(F)F)n5)CC4)c3C2=O)C(=O)N1 (some centres unmarked)
DC50: 100 to 1000 nM

For the molecule shown here, CN(CCCOCCCNc1cccc2c1C(=O)N(C1CCC(=O)NC1=O)C2=O)C[C@H]1CC[C@H](n2cc(NC(=O)c3coc(-c4ccnc(N[C@@H]5CCCC[C@@H]5O)c4)n3)c(C(F)F)n2)CC1 (some centres unmarked) , give the reported DC50.
10 to 100 nM
